List of kon values.
Biological target: T1, human ROR1 extracellular domain-Fc fusion (human, UniProt Q01973 30-406)
T1 construct: extracellular domain; also called hROR1; ROR1-hFc
Experiment: SPR, hROR1 ECD-Fc on chip

[
  {
    "binder": "P3A1 G1 dimer (VNAR, humanised VNAR dimer) TRVDQSPSSLSASVGDRVTITCVLTDTSYGLYSTYWYRKNPGSSNKEQISISGRYSESVNKGTKSFTLTISSLQPEDSATYYCRAREARHPWLRQWYDGAGTKVEIKGGGGSGGGGSGGGGSGGGGSGGGGSTRVDQSPSSLSASVGDRVTITCVLTDTSYGLYSTYWYRKNPGSSNKEQISISGRYSESVNKGTKSFTLTISSLQPEDSATYYCRAREARHPWLRQWYDGAGTKVEIKQASGAHHHHHHGAEFEQKLISEEDLG",
    "kon (M⁻¹ s⁻¹)": "4.3e+06"
  },
  {
    "binder": "B1 humanised V7 (VNAR, humanised VNAR; also called B1V7) VNAR: ASVDQSPSSASASVGDRLTITCVVTGANYGLAATYWYRKNPGSSNQERISISGRYSESVNKRTMSFTLTISSLQPEDSATYYCKAYPWGAGAPWLVQWYDGAGTKLEVKQ",
    "kon (M⁻¹ s⁻¹)": 77400
  },
  {
    "binder": "P3A1 G2 dimer (VNAR, humanised VNAR dimer) TRVDQSPSSLSASVGDRVTITCVLTDTSYGLYSTYWYRKNPGTTDWERMSIGGRYSESVNKGAKSFTLTISSLQPEDSATYYCRAREARHPWLRQWYDGAGTKVEIKGGGGSGGGGSGGGGSGGGGSGGGGSTRVDQSPSSLSASVGDRVTITCVLTDTSYGLYSTYWYRKNPGTTDWERMSIGGRYSESVNKGAKSFTLTISSLQPEDSATYYCRAREARHPWLRQWYDGAGTKVEIKQASGAHHHHHHGAEFEQKLISEEDLG",
    "kon (M⁻¹ s⁻¹)": "1.88e+06"
  },
  {
    "binder": "B1 G1 (loop-grafted humanised B1) (VNAR, humanised VNAR) VNAR: TRVDQSPSSLSASVGDRVTITCVLTGANYGLASTYWYRKNPGSSNKEQISISGRYSESVNKGTKSFTLTISSLQPEDSATYYCRAYPWGAGAPWLVQWYDGAGTKVEIKQ",
    "kon (M⁻¹ s⁻¹)": 220000
  },
  {
    "binder": "P3A1 V1 dimer (VNAR, humanised VNAR dimer) TRVDQSPSSLSASVGDRVTITCVLTDTSYGLYSTSWFRKNPGTTDWERMSIGGRYVESVNKGAKSFTLTISSLQPEDFATYYCKAREARHPWLRQWYDGAGTKVEIKGGGGSGGGGSGGGGSGGGGSGGGGSTRVDQSPSSLSASVGDRVTITCVLTDTSYGLYSTSWFRKNPGTTDWERMSIGGRYVESVNKGAKSFTLTISSLQPEDFATYYCKAREARHPWLRQWYDGAGTKVEIKQASGAHHHHHHGAEFEQKLISEEDLG",
    "kon (M⁻¹ s⁻¹)": "4.78e+06"
  },
  {
    "binder": "D3 humanised ADV2 (VNAR, also called D3 AD V2) VNAR: TRVDQSPSSLSASVGDRVTITCVLTDTSYGLYSTSWFRKNPGTTDWERMSIGGRYSESVNKGAKSFTLTISSLQPEDSATYYCKAQSGMAISTGSGHGYNWYDGAGTKVEIKQ",
    "kon (M⁻¹ s⁻¹)": 45800
  }
]
